molecules and their reported TGI
# System: NCI-H226 lung
# experimentSummary: NCI tumour cell line growth inhibition, 48 h

molecule	censoringOperator	TGI [µM]
CN1C(=O)N[C@H]2[C@@H]3NC(=O)c4ccc(Br)n4[C@@H]3C[C@]21O	=	2.64
CC/C(CC(=O)CCC(=O)Nc1ccccc1[N+](=O)[O-])=N/NC(=O)C[n+]1ccccc1	>	100
CCOC(=O)c1sc2[n+](c1C)C(=O)/C(=C/c1ccc([N+](=O)[O-])cc1)S2	=	58.4
CC(=O)On1c(-c2ccccc2-c2nc3ccccc3n2OC(C)=O)nc2ccccc21	>	100
CCC(CNc1cc(OC)cc2cccnc12)NC1CCCCC1 (stereo unspecified)	>	100
Cn1c2ccc(Br)cc2c2c3c(c4c5ccccc5[nH]c4c21)C(=O)N(O)C3=O	=	2.92
COc1ccc(OC)c(-c2cc(-c3ccc(Cl)cc3)nn2-c2ccc(S(=O)(=O)NC(C)=O)cc2)c1	=	23.1
O=C(NCc1cccc2ccccc12)N/N=C\c1ccc(Cl)cc1	>	100
CN(Cc1cc(Cl)cc(Cl)c1)CC(C(=O)c1ccccc1)c1ccccc1 (stereo unspecified)	=	22.4
Cc1cc(CC(C)CC(C)(C)C)n(O)c(=O)c1 (stereo unspecified) (tested in a mixture with another compound)	=	10.4
COC(=O)N1CC2C3C4CC(C(c5ccccc5)=C4c4ccccc4)C3C21 (stereo unspecified)	=	29.6
